Values were extracted from patent US20120157494A1.

Target: hP2X7 (Homo sapiens)
Construct: 1321N1 cells stably expressing the full length human P2X7 gene (1321N1-hP2X7); expressed in transfected cells
Sequence (Q99572 whole entry): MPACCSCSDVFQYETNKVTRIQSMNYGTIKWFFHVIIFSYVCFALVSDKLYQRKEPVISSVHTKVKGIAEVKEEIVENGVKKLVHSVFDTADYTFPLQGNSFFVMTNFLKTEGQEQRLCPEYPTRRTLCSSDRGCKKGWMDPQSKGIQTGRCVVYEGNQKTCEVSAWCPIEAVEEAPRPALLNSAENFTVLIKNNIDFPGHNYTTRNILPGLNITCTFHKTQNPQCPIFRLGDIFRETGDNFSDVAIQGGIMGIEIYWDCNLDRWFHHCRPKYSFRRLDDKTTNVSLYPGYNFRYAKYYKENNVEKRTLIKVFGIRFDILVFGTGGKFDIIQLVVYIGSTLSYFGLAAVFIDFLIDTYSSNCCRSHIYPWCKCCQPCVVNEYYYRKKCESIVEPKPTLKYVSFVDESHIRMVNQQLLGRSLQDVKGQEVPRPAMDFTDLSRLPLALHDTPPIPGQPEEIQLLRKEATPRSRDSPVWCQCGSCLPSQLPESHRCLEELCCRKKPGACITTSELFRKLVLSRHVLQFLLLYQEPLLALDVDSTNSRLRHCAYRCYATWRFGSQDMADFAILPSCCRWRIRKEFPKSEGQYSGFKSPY
Experiment: Intracellular Calcium Flux (FLIPR) Assay
Format: cell-based
Conditions: 1321N1 cells stably expressing human P2X7; agonist 100 μM BzATP; 20 min equilibration with antagonist; read-out: FLIPR pIC50 hP2X7-1321n1 (converted)
metricName: IC50 (nM)
One number for each entry, in nM.

For orientation, consider the following solved cases.
O=C(NCC1CCCCC1)[C@@H]1CCCN(c2cccc3c2C(=O)N(Cc2ccncc2)C3=O)C1
708
O=C(NCc1ccccc1F)[C@@H]1CCCN(c2cccc3c2C(=O)N(Cc2ccncc2)C3=O)C1
110
C[C@H](CO)N1Cc2c(ccc(Cl)c2NC(=O)Cc2ccc(F)c(C(F)(F)F)c2)C1=O
174
COc1ccccc1CNC(=O)C1CCCN(c2cccc3c2C(=O)N(Cc2ccncc2)C3=O)C1 (centres unmarked)
155
O=C(NCc1ccccc1O)[C@@H]1CCCN(c2cccc3c2C(=O)N(Cc2ccncc2)C3=O)C1
100
COCC(C)N1Cc2c(NC(=O)Cc3ccc(F)c(C(F)(F)F)c3)cccc2C1=O (centres unmarked)
331
COC[C@@H](C)N1Cc2c(ccc(Cl)c2NC(=O)Cc2ccc(F)c(C(F)(F)F)c2)C1=O
389

With those in mind, consider the next compound.
Which IC50 reading was recorded for the compound `COc1ccccc1CNC(=O)[C@@H]1CCCN(c2cccc3c2C(=O)N(Cc2cncs2)C3=O)C1` ?
417
